Every entry's value here was drawn from PubChem BioAssay (NCI).

System: MDA-MB-468 breast
protocolSummary: NCI-60 one-dose screen, 48 h (100 = growth as untreated, 0 = no growth, -100 = all killed)
measurementContext: 10 µM unless noted
Compounds without any hit were thinned out: in the full panel of roughly 83,000, 20% have a hit.
Criterion: growth strictly under 40%. Met: True. Not met: False.

In the record for O=C(NCOC(O)C(Cl)(Cl)Cl)NCOC(O)C(Cl)(Cl)Cl (stereo not given) , is growth less than 40%?
False

In the record for Nc1nc(N)c(-c2ccc(Cl)c(Cl)c2)c(CBr)n1 , is growth less than 40%?
False

In the record for Cc1ccc2c(C(C[N+](=O)[O-])c3ccco3)c(-c3ccccc3)[nH]c2c1 (stereo not given) , is growth less than 40%?
True

In the record for Nc1[nH]n2cc(-c3ccc(F)cc3)nc2c1N=Nc1ccc(S(N)(=O)=O)cc1 , is growth less than 40%?
False
